target: Env of HIV-1 strain Du172.17 (HIV-1); assay: cell-based or functional assay
measurement_label: neutralization IC50

{"columns": ["binder", "neutralization IC50"],
 "data": [
  ["8ANC195 IgG (antibody, V domains shown) VH: QIHLVQSGTEVKKPGSSVTVSCKAYGVNTFGLYAVNWVRQAPGQSLEYIGQIWRWKSSASHHFRGRVLISAVDLTGSSPPISSLEIKNLTSDDTAVYFCTTTSTYDKWSGLHHDGVMAFSSWGQGTLISVSA VL: DIQMTQSPSTLSASIGDTVRISCRASQSITGNWVAWYQQRPGKAPRLLIYRGAALLGGVPSRFSGSAAGTDFTLTIGNLQAEDFGTFYCQQYDTYPGTFGQGTKVEV", "10.8 µg/mL"],
  ["γ8κ3 (antibody, V domains shown) VH: QIHLVQSGTGVKKPGSSVTVSCKAYGVNTFGLYAVNWVRQAPGQGLEYIGQIWRWKSSASHHFRGRVLISAVDLTGSSPPITSLEIKNVTSDDTAVYFCTTTSTYDKWSGLYHDGVMAFSSWGQGTLISVSA VL: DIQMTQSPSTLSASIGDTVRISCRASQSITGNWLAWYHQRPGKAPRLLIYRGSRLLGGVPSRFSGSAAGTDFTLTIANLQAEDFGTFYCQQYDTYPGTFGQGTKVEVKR", "> 15 µg/mL"],
  ["γ23κ11 (antibody, V domains shown) VH: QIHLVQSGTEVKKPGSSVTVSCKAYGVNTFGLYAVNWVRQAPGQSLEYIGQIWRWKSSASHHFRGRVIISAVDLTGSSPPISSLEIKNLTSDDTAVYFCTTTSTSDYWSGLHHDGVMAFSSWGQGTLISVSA VL: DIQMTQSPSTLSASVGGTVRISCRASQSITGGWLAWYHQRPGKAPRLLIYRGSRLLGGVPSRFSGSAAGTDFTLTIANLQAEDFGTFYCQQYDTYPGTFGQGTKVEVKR", "11.3 µg/mL"],
  ["8ANC3630 (antibody, V domains shown) VH: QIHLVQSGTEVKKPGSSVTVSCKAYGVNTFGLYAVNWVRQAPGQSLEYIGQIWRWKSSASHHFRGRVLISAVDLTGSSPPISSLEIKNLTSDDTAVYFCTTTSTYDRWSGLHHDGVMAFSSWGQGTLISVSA VL: DIQMTQSPSTLSASIGDTVRISCRASQSITGGWLAWYHQRPGKAPRLLIYRGSRLLGGVPSRFSGSAAGTDFTLTIANLQAEDFGTFYCQQYDTYPGTFGQGTKVEVKR", "> 30 µg/mL"],
  ["γ23κ5 (antibody, V domains shown) VH: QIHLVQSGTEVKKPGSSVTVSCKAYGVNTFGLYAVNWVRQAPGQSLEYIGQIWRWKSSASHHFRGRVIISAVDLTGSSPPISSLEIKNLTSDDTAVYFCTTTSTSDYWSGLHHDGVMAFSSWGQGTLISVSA VL: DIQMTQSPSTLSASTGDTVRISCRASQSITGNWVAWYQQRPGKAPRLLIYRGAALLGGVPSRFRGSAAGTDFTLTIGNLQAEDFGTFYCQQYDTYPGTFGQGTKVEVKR", "1.81 µg/mL"],
  ["γ44κ61 (antibody, V domains shown) VH: QIHLVQSGTEVKKPGSSVTVSCKAYEVNTFGLYAVNWVRQAPGQSLEYIGQIWRWKSSASHHFRGRVLISAVDLTGSSPPISSLEIKNVTSDDTAVYFCTTTSTHDKWSGLHHDGVMAFSSWGQGTLISVSA VL: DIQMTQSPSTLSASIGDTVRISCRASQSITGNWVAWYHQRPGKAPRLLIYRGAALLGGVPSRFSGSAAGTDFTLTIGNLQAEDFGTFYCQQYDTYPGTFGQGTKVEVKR", "> 15 µg/mL"]
]}

Provide one value: measured neutralization IC50 of γ46κ5 (antibody, V domains shown) VH: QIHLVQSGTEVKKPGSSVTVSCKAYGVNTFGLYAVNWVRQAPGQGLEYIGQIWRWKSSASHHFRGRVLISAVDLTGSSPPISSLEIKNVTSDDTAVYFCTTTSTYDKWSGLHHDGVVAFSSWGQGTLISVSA VL: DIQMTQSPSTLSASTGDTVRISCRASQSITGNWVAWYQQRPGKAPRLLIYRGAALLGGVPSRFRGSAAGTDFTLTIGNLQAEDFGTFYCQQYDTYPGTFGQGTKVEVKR
> 15 µg/mL

Provide one value: measured neutralization IC50 of γ52κ61 (antibody, V domains shown) VH: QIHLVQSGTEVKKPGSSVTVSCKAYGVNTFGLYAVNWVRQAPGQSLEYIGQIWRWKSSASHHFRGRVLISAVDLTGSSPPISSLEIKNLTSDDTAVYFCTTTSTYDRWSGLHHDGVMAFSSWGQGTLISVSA VL: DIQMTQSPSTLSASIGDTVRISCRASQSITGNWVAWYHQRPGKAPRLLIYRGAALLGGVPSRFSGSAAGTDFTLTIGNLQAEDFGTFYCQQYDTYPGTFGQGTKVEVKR
7.28 µg/mL

Provide one value: measured neutralization IC50 of γ59κ18 (antibody, V domains shown) VH: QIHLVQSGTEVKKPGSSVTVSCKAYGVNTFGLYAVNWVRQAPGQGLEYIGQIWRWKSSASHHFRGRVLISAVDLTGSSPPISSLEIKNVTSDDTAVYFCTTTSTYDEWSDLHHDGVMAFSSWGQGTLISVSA VL: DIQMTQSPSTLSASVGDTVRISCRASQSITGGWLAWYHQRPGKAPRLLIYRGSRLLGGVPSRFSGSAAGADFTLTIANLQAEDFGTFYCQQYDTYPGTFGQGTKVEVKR
> 15 µg/mL

Provide one value: measured neutralization IC50 of γ15κ3 (antibody, V domains shown) VH: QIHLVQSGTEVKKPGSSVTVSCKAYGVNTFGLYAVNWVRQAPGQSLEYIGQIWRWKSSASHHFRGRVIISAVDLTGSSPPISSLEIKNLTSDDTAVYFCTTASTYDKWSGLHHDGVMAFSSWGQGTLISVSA VL: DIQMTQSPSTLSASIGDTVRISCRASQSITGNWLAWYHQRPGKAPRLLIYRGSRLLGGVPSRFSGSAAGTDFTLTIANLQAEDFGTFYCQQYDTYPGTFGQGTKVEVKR
> 15 µg/mL
